# Tested on: field corn (Zea mays L., var. Dekalb 535, CORN)
# assayProcedure: Pre-emerge test, crop safety
# Format: in vivo
# conditionSummary: pre-emerge, 250 g ai/ha, 14 days after application, scale 0-100
Could you please report measured phytotoxicity rating CORN (crop damage) for the items listed next?
Output: the number by itself.

In: Consider the molecule shown here: COc1c(Cl)cc(F)c(-n2c(=O)cc(C(F)(F)F)n(C)c2=O)c1NC(=O)C=Cc1cccc(Cl)c1 [2-134] What is its recorded phytotoxicity rating CORN (crop damage)?
Out: 0

In: Please look up its phytotoxicity rating CORN (crop damage): C=Cc1ccc(C(=O)N(C(=O)c2ccc(C=C)cc2)c2c(OC)c(Br)cc(F)c2-n2c(=O)cc(C(F)(F)F)n(C)c2=O)cc1 [2-183]
Out: 0

In: I would be grateful if you could share the reported phytotoxicity rating CORN (crop damage) for COc1c(Cl)cc(F)c(-n2c(=O)cc(C(F)(F)F)n(C)c2=O)c1NC(=O)COc1ccc(Cl)cc1Cl [2-154] .
Out: 90

In: // returns reported phytotoxicity rating CORN (crop damage) for input COc1c(Cl)cc(F)c(-n2c(=O)cc(C(F)(F)F)n(N)c2=O)c1NC(=O)C=Cc1ccccc1 [2-185]
Out: 5

In: Endpoint output: phytotoxicity rating CORN (crop damage) of Cn1c(C(F)(F)F)cc(=O)n(-c2c(F)cc(OC(F)F)cc2NC(=O)c2ccc3ccccc3c2)c1=O [2-148] . Value?
Out: 0

In: Could you share which phytotoxicity rating CORN (crop damage) value was measured for COc1c(Cl)cc(F)c(-n2c(=O)cc(C(F)(F)F)n(C)c2=O)c1NC(=O)c1ccc2cccc(F)c2c1 [2-161] ?
Out: 0

In: I'd like to know its phytotoxicity rating CORN (crop damage). The molecule in question is COc1c(Cl)cc(F)c(-n2c(=O)cc(C(F)(F)F)n(C)c2=O)c1NC(=O)c1cc2ccccc2cc1C [2-157]
Out: 45

In: Reported phytotoxicity rating CORN (crop damage) for Cc1c(Cl)cc(F)c(-n2c(=O)cc(C(F)(F)F)n(C)c2=O)c1NC(=O)C=Cc1ccccc1 [2-123] : what is it?
Out: 15

In: Name the recorded phytotoxicity rating CORN (crop damage) for Cn1c(C(F)(F)F)cc(=O)n(-c2c(F)cc(Cl)cc2NC2CC2)c1=O [2-147] .
Out: 100

* * *

# Tested on: ivyleaf morningglory (Ipomoea hederacea, IPOHE)
# assayProcedure: Post-emerge test, greenhouse herbicide activity screening
# Format: in vivo
# conditionSummary: post-emerge, 63 g ai/ha, 14 days after application, rating scale 0-100
assayEndpoint: IPOHE phytotoxicity rating

In: Data request, read-out IPOHE phytotoxicity rating, for COc1c(C#N)cc(F)c(-n2c(=O)cc(C(F)(F)F)n(C)c2=O)c1NC(=O)c1ccc2ccccc2c1 [2-180]
Out: 100

In: Record request: IPOHE phytotoxicity rating value, item COc1c(Cl)cc(F)c(-n2c(=O)cc(C(F)(F)F)n(C)c2=O)c1NC(=O)c1ccc2cccc(F)c2c1 [2-161]
Out: 100

In: For the compound COc1c(Cl)cc(F)c(-n2c(=O)cc(C(F)(F)F)n(C)c2=O)c1NC(=O)CCc1ccccc1C [2-129] , what IPOHE phytotoxicity rating is on record?
Out: 100

In: For the compound shown here, C=Cc1ccc(C(=O)N(C(=O)c2ccc(C=C)cc2)c2c(OC)c(Br)cc(F)c2-n2c(=O)cc(C(F)(F)F)n(C)c2=O)cc1 [2-183] , give the reported IPOHE phytotoxicity rating.
Out: 0

In: Given COc1ccccc1C=CC(=O)Nc1c(OC)c(Cl)cc(F)c1-n1c(=O)cc(C(F)(F)F)n(C)c1=O [2-127] , state its recorded IPOHE phytotoxicity rating.
Out: 100

In: State the recorded IPOHE phytotoxicity rating for this entry: COc1c(Cl)cc(F)c(-n2c(=O)cc(C(F)(F)F)n(C)c2=O)c1NC(=O)C=Cc1ccccc1F [2-125]
Out: 100

* * *

Please provide measured Pre-emerge Herbicidal Activity CORN for the entries that follow.
# Tested on: field corn (Zea mays L., var. Dekalb 535, CORN)
# assayProcedure: Pre-emerge test, crop safety
# Format: in vivo
# conditionSummary: crop damage, pre-emerge, rate 250 g ai/ha, phytotoxicity rating 0-100 at 14 days after application

In: Request - read-out Pre-emerge Herbicidal Activity CORN | tested on field corn (Zea mays L., var. Dekalb 535, CORN) | molecule `Nc1c(OC2CCCC2)c(Cl)cc(F)c1N1C(=O)C2=C(CCCC2)C1=O`
Out: 0

In: What Pre-emerge Herbicidal Activity CORN appears in the records for this molecule with field corn (Zea mays L., var. Dekalb 535, CORN)? `Cc1cccc(COC(=O)Nc2c(C)c(Cl)cc(F)c2-n2c(=O)cc(C(F)(F)F)n(C)c2=O)c1`
Out: 80

In: # get_value(readout= Pre-emerge Herbicidal Activity CORN, system= field corn (Zea mays L., var. Dekalb 535, CORN)) for `Cc1c(Cl)cc(F)c(-n2c(=O)cc(C(F)(F)F)n(C)c2=O)c1NC(=O)OCc1ccc([N+](=O)[O-])cc1`
Out: 45

In: Short answer please: Pre-emerge Herbicidal Activity CORN, field corn (Zea mays L., var. Dekalb 535, CORN), entry `Cc1nn(-c2c(Cl)cc(Cl)cc2NC(=O)c2ccc(F)cc2F)c(=O)n1C(F)F`
Out: 0

* * *

# Test system: johnsongrass (Sorghum halepense, SORHA)
# assayProcedure: Pre-emerge test, greenhouse herbicide activity screening
# Format: in vivo
# conditionSummary: pre-emerge, 250 g ai/ha, 14 days after application, scale 0-100
# Method: A standard greenhouse herbicide activity screening system was used to evaluate the herbicidal efficacy and crop safety of these test compounds. […] At 14 days after application of the test materials, phytotoxicity ratings were recorded. […]
Decision: phytotoxicity rating SORHA compared against 50; not below it gives MET, below it gives NOT MET.

In: Record `COc1c(Cl)cc(F)c(-n2c(=O)cc(C(F)(F)F)n(C)c2=O)c1NC(=O)COc1ccc(F)cc1` ; criterion: phytotoxicity rating SORHA no lower than 50. Met?
Out: MET

In: Check the entry `CCCSCC(=O)Nc1c(OC)c(Cl)cc(F)c1-n1c(=O)cc(C(F)(F)F)n(C)c1=O` : does phytotoxicity rating SORHA equal or exceed 50?
Out: MET

In: Given the entry `Cn1c(C(F)(F)F)cc(=O)n(-c2c(F)cc(OC(F)F)cc2NC(=O)c2ccc3ccccc3c2)c1=O` , answer whether its phytotoxicity rating SORHA meets or surpasses 50.
Out: NOT MET

In: Reported phytotoxicity rating SORHA at or above 50? `COc1c(Br)cc(F)c(-n2c(=O)cc(C(F)(F)F)n(C)c2=O)c1NC(=O)C=Cc1ccccc1`
Out: NOT MET

In: Does the reported phytotoxicity rating SORHA for `COc1ccc(-n2c(=O)cc(C(F)(F)F)n(C)c2=O)c(NC(=O)c2ccc3ccccc3c2)c1` fall at or above the 50 mark?
Out: MET

In: Confirm if phytotoxicity rating SORHA reported for the compound `COc1c(Cl)cc(F)c(-n2c(=O)cc(C(F)(F)F)n(C)c2=O)c1NC(=O)CSC(C)C` is 50 or above.
Out: NOT MET

* * *

For each record, write down the corresponding Pre-emerge Herbicidal Activity, phytotoxicity rating (0-100), IPOHE.
# Test system: ivyleaf morningglory (Ipomoea hederacea, IPOHE)
# assayProcedure: Pre-emerge test, greenhouse herbicide activity screening
# Type: in vivo
# conditionSummary: 63 g ai/ha; rated 14 days after application; 0 = no damage, 100 = complete death

In: Entry COc1c(Cl)cc(F)c(-n2c(=O)cc(C(F)(F)F)n(C)c2=O)c1NC(=O)c1ccccc1F [2-39] : reported Pre-emerge Herbicidal Activity, phytotoxicity rating (0-100), IPOHE = ?
Out: 95

In: So what's the measured Pre-emerge Herbicidal Activity, phytotoxicity rating (0-100), IPOHE for this one? COc1c(Cl)cc(F)c(-n2c(=O)cc(C(F)(F)F)n(C)c2=O)c1NC(=O)c1cccnc1 [2-98]
Out: 100

In: I'd like to know its Pre-emerge Herbicidal Activity, phytotoxicity rating (0-100), IPOHE. The molecule in question is Cn1c(C(F)(F)F)cc(=O)n(-c2c(F)cc(Cl)c(OCC#N)c2NC(=O)CCc2ccccc2)c1=O [2-87]
Out: 90

In: Name the recorded Pre-emerge Herbicidal Activity, phytotoxicity rating (0-100), IPOHE for COc1c(Cl)cc(F)c(-n2c(=O)cc(C(F)(F)F)n(C)c2=O)c1NC(=O)c1cccc(Cl)c1 [2-54] .
Out: 85

In: Consider the molecule COc1c(Cl)cc(F)c(-n2c(=O)cc(C(F)(F)F)n(C)c2=O)c1NC(=O)c1ccc(OC(F)(F)F)cc1 [2-72] and give its measured Pre-emerge Herbicidal Activity, phytotoxicity rating (0-100), IPOHE.
Out: 20

Sourced from patent US6355799B1
